Target: human catalytic domain ROCK II protein (amino acids 5-554) with a N-terminal GST tag (Homo sapiens, UniProt O75116)
Sequence (O75116 5-554): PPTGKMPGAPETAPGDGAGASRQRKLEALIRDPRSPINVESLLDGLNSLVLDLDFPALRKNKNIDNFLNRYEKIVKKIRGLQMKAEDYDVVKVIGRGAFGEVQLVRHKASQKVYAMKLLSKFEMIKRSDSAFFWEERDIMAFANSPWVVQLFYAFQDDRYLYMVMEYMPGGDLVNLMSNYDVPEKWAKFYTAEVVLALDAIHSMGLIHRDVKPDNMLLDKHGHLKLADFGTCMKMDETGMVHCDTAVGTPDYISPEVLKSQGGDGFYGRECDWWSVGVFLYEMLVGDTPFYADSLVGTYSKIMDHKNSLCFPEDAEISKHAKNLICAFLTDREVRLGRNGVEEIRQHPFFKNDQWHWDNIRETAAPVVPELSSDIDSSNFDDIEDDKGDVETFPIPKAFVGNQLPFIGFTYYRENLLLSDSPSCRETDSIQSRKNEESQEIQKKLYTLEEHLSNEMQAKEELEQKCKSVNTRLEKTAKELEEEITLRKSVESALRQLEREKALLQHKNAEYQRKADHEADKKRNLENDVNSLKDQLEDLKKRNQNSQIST
Experiment: biochemical
Where a name gives a salt, the structure may show the parent alone.
measure: IC50 (nM)

# example entries with known answers
COc1cccc([C@@H](C)OC(=O)N2CCN(c3ccncc3F)C[C@H]2C)c1 [Example 46] = 3.9
C[C@@H]1CN(c2ccncc2F)C[C@@H](C)N1C(=O)N[C@H](C)c1cccc2c1CCO2 [Example 96] = 6.5

1: C[C@H](NC(=O)N1CCN(c2ccncc2F)C[C@H]1C)c1cccc2c1N(C)CCO2 [Example 144]
2: COc1cccc(CNC(=O)N2CCN(c3ccncc3F)[C@@H](C)C2)c1 [Example 150]
Prompt: For this pair, 1 and 2 , which shows a numerically higher IC50? Field: selected label. Fill in the label of the entry you choose.
Completion: 2
(2: 20.1 nM, 1: 12.8 nM)

a: C[C@@H]1CN(c2ccncc2F)CCN1C(=O)N[C@H](C)c1cccc2c1OCO2 [Example 68]
b: COc1cccc(CNC(=O)N2CCN(c3ccnc(F)c3)[C@@H](C)C2)c1 [Example 121]
c: C[C@@H]1CN(c2ccncc2F)CCN1C(=O)NCc1cccc2c1OCCO2 [Example 77, formate]
Prompt: Sort (3 compounds) by IC50: min first. // rank by listing labels in the order requested
Completion: a, c, b

----------
Biological target: human catalytic domain ROCK II protein (amino acids 5-554) with a N-terminal GST tag (Homo sapiens)
Assay: biochemical
pIC50: −log10 of the molar value.
measure: pIC50

COc1cccc([C@@H](C)NC(=O)N2[C@H](C)CN(c3ccnc(F)c3)C[C@H]2C)c1 [Example 15] = 7.12
[2H]C([2H])([2H])Oc1cccc([C@H](NC(=O)N2CCN(c3ccncc3F)CC2)C([2H])([2H])[2H])c1 [Example 131] = 8.10
C[C@@H](NC(=O)N1CCN(c2ccnc(F)c2)[C@@H](C)C1)c1cccc2occc12 [Example 119] = 8.00
C[C@@H](NC(=O)N1CCN(c2ccncc2F)CC1)c1cccc2c1CC(C)(C)O2 [Example 30] = 7.65
CC(NC(=O)N1CCN(c2ccncc2F)CC1)c1cccc(F)c1Cl (single isomer, unassigned) [Example 22] = 7.33

I: C[C@@H](NC(=O)N1CCN(c2ccncc2F)CC1)c1ccccc1Cl [Example 124]
II: COc1cccc([C@@H](C)NC(=O)N2CCN(c3ccncc3F)C[C@@H]2C)c1 [Example 133]
III: C[C@@H](NC(=O)N1CCN(c2ccncc2F)CC1)c1cccc2c1CCO2 [Example 28]
IV: COc1cccc([C@@H](C)OC(=O)N2CCN(c3ccncc3F)CC2)c1 [Example 17]
Prompt: Sort entries by pIC50 from minimum to maximum value. // ordering of labels required in reply
Completion: II, I, IV, III

----------
Biological target: human catalytic domain ROCK II protein (amino acids 5-554) with a N-terminal GST tag (Homo sapiens)
Assay: biochemical
pIC50: −log10 of the molar value.
measure: pIC50

Solved entries:
C[C@@H](NC(=O)N1CCN(c2ccncc2F)CC1)c1cccc2occc12 [Example 29] = 8.35
C[C@@H]1CN(c2ccncc2F)CCN1C(=O)N[C@H](C)c1cccc2c1OC(F)(F)O2 [Example 67] = 8.00

a: COc1cccc([C@@H](C)NC(=O)N2CCN(c3ccncc3F)[C@@H]3C[C@@H]32)c1 [Example 151]
b: C[C@@H]1CN(c2ccncc2F)CCN1C(=O)N[C@H](C)c1cccc2occc12 [Example 142]
Prompt: Quick one: lower pIC50, a or b ? Label of pick, please.
Completion: a
(a: 7.28, b: 8.59)

P: C[C@@H]1CN(c2ccnc(F)c2)CCN1C(=O)NCc1cccc2c1OC(F)(F)O2 [Example 5]
Q: [2H]C([2H])([2H])Oc1cccc([C@@H](C)NC(=O)N2CCN(c3ccncc3F)C[C@H]2C)c1 [Example 82]
Prompt: Lower value of pIC50 belongs to which: P or Q ? Response format: the label of the selected entry.
Completion: P

1: COc1cccc([C@@H](C)NC(=O)N2CCN(c3ccncc3Cl)C[C@H]2C)c1 [Example 155]
2: O=C(NCc1cccc(OC(F)F)c1)N1CCN(c2ccnc(F)c2)CC1 [Example 103]
Prompt: Of the pair 1 and 2 , name the member with the lesser recorded pIC50. API: response body contains the label of the selected item.
Completion: 2

a: COc1cccc(CNC(=O)N2CCN(c3ccncc3F)C[C@H]2C)c1 [Example 138]
b: COc1ccc(F)c([C@@H](C)NC(=O)N2CCN(c3ccncc3F)C[C@H]2C)c1 [Example 134]
c: C[C@@H]1CN(C(=O)N[C@H](C)c2ccccc2Cl)CCN1c1ccnc(F)c1 [Example 13]
Prompt: List by increasing pIC50. To answer, arrange all of the labels according to the requested order.
Completion: c, b, a
